Tested on: Candida albicans
Test: Antifungal activity on Candida albicans MY1055.
Type: functional
Starred links: 1 amine or outer side, 2 acyl side, 3 side chain; linkers in the order of their positions; H or OH if unused. Positions of bridges follow the written chain, without caps; N, C: chain ends. Non-standard residues stand in square brackets, D forms with d. Residues, ends and D or L forms follow the SMILES beside them. *: point of attachment. Orn(4R-OH,5R-OH) = O=C([C@H](C[C@@H](O)[C@@H](O)N[*:3])N[*:1])[*:2]; hTyr(3S-OH,4S-OH) = N[C@H](C(=O)O)[C@H](O)[C@@H](O)c1ccc(O)cc1; Pro(3S-OH,4S-Me) = C[C@H]1CN[C@H](C(=O)O)[C@H]1O; Benzoyl(4-octyloxy) = CCCCCCCCOc1ccc(C(=O)*)cc1; hTyr = N[C@@H](CCc1ccc(O)cc1)C(=O)O; Hyp = O=C(O)[C@@H]1C[C@@H](O)CN1; Orn = NCCC[C@H](N)C(=O)O
Experimental Endpoint: MFC

| Molecule | Target Of Assay | MFC |
| --- | --- | --- |
| CCCCCCCCOc1ccc(C(=O)N[C@H]2CCCNC(=O)[C@@H]3C[C@@H](O)CN3C(=O)[C@H]([C@@H](C)O)NC(=O)[C@H](CCc3ccc(O)cc3)NC(=O)[C@@H]3C[C@@H](O)CN3C(=O)[C@H]([C@@H](C)O)NC2=O)cc1 ({Benzoyl(4-octyloxy)}-[Orn]T[Hyp][hTyr]T[Hyp]; lactam 1-C) | Candida albicans | 8 µg/mL |
| CCCCCCCCOc1ccc(C(=O)N[C@H]2CCCNC(=O)[C@@H]3[C@@H](O)[C@@H](C)CN3C(=O)[C@H]([C@@H](C)O)NC(=O)[C@H](Cc3ccc(O)cc3)NC(=O)[C@@H]3C[C@@H](O)CN3C(=O)[C@H]([C@@H](C)O)NC2=O)cc1 ({Benzoyl(4-octyloxy)}-[Orn]T[Hyp]YT[Pro(3S-OH,4S-Me)]; lactam 1-C) | Candida albicans | > 128 µg/mL |
| CCCCCCCCOc1ccc(C(=O)N[C@H]2C[C@@H](O)[C@@H](O)NC(=O)[C@@H]3[C@@H](O)[C@@H](C)CN3C(=O)[C@H]([C@@H](C)O)NC(=O)[C@H]([C@H](O)[C@@H](O)c3ccc(O)cc3)NC(=O)[C@@H]3C[C@@H](O)CN3C(=O)[C@H]([C@@H](C)O)NC2=O)cc1 [CILOFUNGIN] ({Benzoyl(4-octyloxy)}-[Orn(4R-OH,5R-OH)]T[Hyp][hTyr(3S-OH,4S-OH)]T[Pro(3S-OH,4S-Me)]; lactam 1-C) | Candida albicans | 0.5 µg/mL |
| CCCCCCCCOc1ccc(C(=O)N[C@H]2CCCNC(=O)[C@@H]3CCCN3C(=O)[C@H]([C@@H](C)O)NC(=O)[C@H](CCc3ccc(O)cc3)NC(=O)[C@@H]3C[C@@H](O)CN3C(=O)[C@H]([C@@H](C)O)NC2=O)cc1 ({Benzoyl(4-octyloxy)}-[Orn]T[Hyp][hTyr]TP; lactam 1-C) | Candida albicans | 8 µg/mL |
| CCCCCCCCOc1ccc(C(=O)N[C@H]2CCCNC(=O)[C@@H]3C[C@@H](O)CN3C(=O)[C@H]([C@@H](C)O)NC(=O)[C@H](Cc3ccc(O)cc3)NC(=O)[C@@H]3CCCN3C(=O)[C@H]([C@@H](C)O)NC2=O)cc1 ({Benzoyl(4-octyloxy)}-[Orn]TPYT[Hyp]; lactam 1-C) | Candida albicans | > 128 µg/mL |

I need MFC for every entry listed below, if you could help.
1. C[C@@H](O)[C@@H]1NC(=O)[C@H](CCc2ccc(O)cc2)NC(=O)[C@@H]2C[C@@H](O)CN2C(=O)[C@H]([C@@H](C)O)NC(=O)[C@@H](N)CCCNC(=O)[C@H]([C@@H](C)O)NC1=O (H-[Orn]T[Hyp][hTyr]TT; lactam 1-C)
2. CCCCCCCCOc1ccc(C(=O)N[C@H]2CCCNC(=O)[C@@H]3CCCN3C(=O)[C@H]([C@@H](C)O)NC(=O)[C@H](Cc3ccc(O)cc3)NC(=O)[C@@H]3CCCN3C(=O)[C@H]([C@@H](C)O)NC2=O)cc1 ({Benzoyl(4-octyloxy)}-[Orn]TPYTP; lactam 1-C)

1. 8 µg/mL
2. > 64 µg/mL

Would you mind giving MFC for every molecule in the list below?
1. CCCCCCCCOc1ccc(C(=O)N[C@H]2CCCNC(=O)[C@@H]3CCCN3C(=O)[C@H]([C@@H](C)O)NC(=O)[C@H](CCc3ccc(O)cc3)NC(=O)[C@@H]3CCCN3C(=O)[C@H]([C@@H](C)O)NC2=O)cc1 ({Benzoyl(4-octyloxy)}-[Orn]TP[hTyr]TP; lactam 1-C)
2. CCCCCCCCOc1ccc(C(=O)N[C@H]2CCCNC(=O)[C@@H]3[C@@H](O)[C@@H](C)CN3C(=O)[C@H]([C@@H](C)O)NC(=O)[C@H](CCc3ccc(O)cc3)NC(=O)[C@@H]3C[C@@H](O)CN3C(=O)[C@H]([C@@H](C)O)NC2=O)cc1 ({Benzoyl(4-octyloxy)}-[Orn]T[Hyp][hTyr]T[Pro(3S-OH,4S-Me)]; lactam 1-C)
3. CCCCCCCCOc1ccc(C(=O)N[C@H]2CCCNC(=O)[C@@H]3C[C@@H](O)CN3C(=O)[C@H]([C@@H](C)O)NC(=O)[C@H](Cc3ccc(O)cc3)NC(=O)[C@@H]3C[C@@H](O)CN3C(=O)[C@H]([C@@H](C)O)NC2=O)cc1 ({Benzoyl(4-octyloxy)}-[Orn]T[Hyp]YT[Hyp]; lactam 1-C)

["4 µg/mL", "1 µg/mL", "> 128 µg/mL"]
